All values here come from patent US20250059175A1.

- System: phosphorylation of AKT on Ser473 (PI3K pathway) in SKBR3 (PIK3CA WT) cell line
- protocol: PI3K pathway activation assay (pAKT Ser473 HTRF), SKBR3 cells
- Type: cell-based
- condition.label: Homo sapiens, SK-BR-3, 2 h, two hours of treatment
- Protocol: The inhibitory activity of the compounds of the disclosure was evaluated by measuring phosphorylation of AKT on Ser473 as a readout of the PI3K pathway using HTRF (CisBio catalog number: 64AKSPE). These studies were conducted in the T-47D (heterozygous PIK3CA H1047R) and SKBR3 (PIK3CA WT) cell lines. […] Fluorescence signal was measured with a multimode plate reader (Envision 2105, Perkin Elmer). […]
assay.metric: IC50

compound: COc1cc(C[C@H]2COC(=O)N2c2cc(C)cc([C@@H](C)Nc3ccc(Cl)nc3C(=O)O)n2)c(F)cn1 [Example 29]
subject.of.test: phosphorylation of AKT on Ser473 (PI3K pathway) in SKBR3 (PIK3CA WT) cell line
assay.metric: IC50
experimental.value: > 10 µM

Output IC50 of Cc1cc(C(C)Nc2ccc(Br)nc2C(=O)O)nc(N2C(=O)OC[C@@H]2Cc2ccccc2)c1 (single isomer, unassigned) [Example 18]
> 10 µM
